Every entry's value here was drawn from patent US9845291B2.

- measured.on: estrogen receptor alpha (ESR1) (Homo sapiens, UniProt P03372)
- Sequence (P03372 whole entry): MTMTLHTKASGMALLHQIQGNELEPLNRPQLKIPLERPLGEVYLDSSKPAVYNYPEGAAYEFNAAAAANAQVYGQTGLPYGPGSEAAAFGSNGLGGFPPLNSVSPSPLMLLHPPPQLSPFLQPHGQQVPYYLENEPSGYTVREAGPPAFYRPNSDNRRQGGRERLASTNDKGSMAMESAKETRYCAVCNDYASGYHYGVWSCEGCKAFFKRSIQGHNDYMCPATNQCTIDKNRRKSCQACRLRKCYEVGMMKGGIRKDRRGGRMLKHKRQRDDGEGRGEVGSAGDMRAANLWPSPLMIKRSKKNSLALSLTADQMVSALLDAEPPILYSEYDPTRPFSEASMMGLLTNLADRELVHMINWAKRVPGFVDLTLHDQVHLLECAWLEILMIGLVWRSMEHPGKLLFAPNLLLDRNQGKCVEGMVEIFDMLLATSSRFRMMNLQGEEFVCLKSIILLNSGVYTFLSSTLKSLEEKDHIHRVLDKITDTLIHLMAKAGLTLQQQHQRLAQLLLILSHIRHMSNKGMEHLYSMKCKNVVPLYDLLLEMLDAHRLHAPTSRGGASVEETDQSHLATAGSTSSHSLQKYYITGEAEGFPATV
- assay.protocol: cell-based
- Method: Where more than one name is associated with a Formula I compound or intermediate, the chemical structure shall define the compound. Cell plates were incubated at 37° C., for 4 hours. Fixation and permeabilization were carried out using a Biotek EL406 plate washer and dispenser as follows. […] Samples were incubated 30 minutes. […] Quantitative fluorescence imaging of ESR1 was carried out using a Cellomics Arrayscan V (Thermo). […]
// reported EC50 per item
State the value with its unit after it.

Sample records with EC50:
compound | EC50
Cc1c(-c2ccc(O)cc2)n(Cc2ccc(OC[C@H](C)N3CC[C@@H](CF)C3)cc2)c2ccc(O)cc12 [Example 2] | 1.6 nM
CC/C(=C(\c1ccc(O)cc1)c1ccc(OC[C@H](C)N2CC[C@@H](CF)C2)cc1)c1ccccc1 [Example 24] | 0.18 nM
Oc1ccc(-c2sc3cc(O)ccc3c2Oc2ccc(OCCN3CC(CF)C3)cc2)cc1 [Example 11] | 0.13 nM

Now consider a different compound.
Query :: Value wanted: EC50 (estrogen receptor alpha (ESR1) (Homo sapiens, UniProt P03372)) of entry CC/C(=C(\c1ccccc1)c1ccc(OC[C@H](C)N2CC[C@@H](CF)C2)cc1)c1ccccc1 [Example 20]
Result :: 24 nM
